- Test system: E21 (patient-derived glioblastoma stem cells of mesenchymal subtype);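 further: cell Painting imaging in 384-well plates, CellProfiler features reduced to at least 20 principal components, Euclidean distance versus same-plate DMSO vehicle wells (0.1% v/v), median over six images per well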
- PROCEDURE SUMMARY: phenotypic distance (Euclidean, principal components) from DMSO controls (arbitrary units); higher = stronger morphological change
- CONDITION SUMMARY: 111.1111111 nM; exposure time: 72 h
Overview of reported phenotypic distance across a group of compounds:
// return a plain number; no unit text

Some compounds with known phenotypic distance results, for comparison:
{"COMPOUND": "Cc1[nH]nc(C(F)(F)F)c1Cc1sc2c(c1C(=O)N1C[C@](C)(O)CO1)c(=O)n(C)c(=O)n2C(C)C", "phenotypic distance": 0.601}
{"COMPOUND": "Cc1cc(C)c(CN2CCc3c(Cl)cc(-c4c(C)noc4C)c(Cl)c3C2=O)c(=O)[nH]1", "phenotypic distance": 2.67}
{"COMPOUND": "OCCN1C[C@H](O)[C@@H](O)[C@H](O)[C@H]1CO", "phenotypic distance": 0.986}

Q: Return reported phenotypic distance; argument: C/C=C(\C)C(=O)N[C@@H](c1ccccc1)[C@@H](O)C(=O)O[C@H]1C[C@@]2(O)[C@@H](OC(=O)c3ccccc3)[C@@H]3[C@]4(OC(C)=O)CO[C@@H]4C[C@H](O)[C@@]3(C)C(=O)[C@H](OC(C)=O)C(=C1C)C2(C)C
A: 6.2

Q: Request: CC(C)C[C@H](NC(=O)[C@H](Cc1ccccc1)C[C@@H](O)[C@H](Cc1ccccc1)NC(=O)OC(C)(C)C)C(=O)N[C@@H](Cc1ccccc1)C(N)=O
A: 0.628

Q: Request: COc1cc([C@@H]2c3cc4c(cc3[C@@H](O[C@@H]3O[C@@H]5CO[C@@H](C)O[C@H]5[C@H](O)[C@H]3O)[C@H]3COC(=O)[C@H]23)OCO4)cc(OC)c1O [Etoposide]
A: 1.35

Q: Request: O=C(O)c1ccc(-c2c[nH]c3ncc(-c4ccccc4)cc23)cc1C1CCCC1
A: 0.832
